The measured values listed here are drawn from patent US20210053957A1.

Test system: Setaia fabei (SETFA)
test-summary: Post-emergence efficacy, glasshouse spray test
Format: in vivo
details: Setaria faberi, post-emergence, 312 h; Application Rate 500 g/Ha; evaluated after 13 days; read-out: Control of weed species after post-emergence application, SETFA (100=total damage to plant; 0=no damage to plant)
value-kind: pest or weed control at 500 g/ha (%)
Write down the numeric answer in % and omit the unit.

Q: Hello, please tell me recorded pest or weed control at 500 g/ha for this one: O=S(=O)([O-])CC[n+]1ccc(-c2nccs2)cn1
A: 50

Q: Identify the reported pest or weed control at 500 g/ha for the following entry. Cn1ccnc1-c1cc[n+](CCC(=O)O)nc1 [Compound A31, 2,2,2-trifluoroacetate]
A: 60

Q: Read off the recorded pest or weed control at 500 g/ha for Cn1nnc(-c2cc[n+](CCC(=O)O)nc2)n1
A: 100

Q: Quote pest or weed control at 500 g/ha reported for O=C(O)CC[n+]1ccc(-c2ccco2)cn1 please.
A: 10

Q: For O=P(O)(O)CC[n+]1ccc(-c2ncco2)cn1 , write its pest or weed control at 500 g/ha.
A: 80

Q: Return pest or weed control at 500 g/ha (reported value) for this molecule: COC(=O)C[n+]1ccc(-c2ncn(C)n2)cn1
A: 40

Q: Give me measured pest or weed control at 500 g/ha, please, for this molecule: O=S(=O)([O-])CC[n+]1ccc(-c2ncns2)cn1
A: 60

Q: Read off the recorded pest or weed control at 500 g/ha for COc1csc(-c2cc[n+](CCS(=O)(=O)[O-])nc2)n1
A: 40

Q: Provide only the value of recorded pest or weed control at 500 g/ha for Cn1ncnc1-c1cc[n+](CCS(=O)(=O)[O-])nc1
A: 80

Q: Recall and state the measured pest or weed control at 500 g/ha for CC(C)(CC(=O)O)[n+]1ccc(-c2ncco2)cn1 .
A: 50

Q: Return pest or weed control at 500 g/ha for the following molecule: Cn1nccc1-c1cc[n+](CCCS(=O)(=O)[O-])nc1
A: 20

Q: Could you please provide reported pest or weed control at 500 g/ha for O=C(O)CC[n+]1ccc(-c2nnc[nH]2)cn1 ? Thanks!
A: 10

Q: Tell me its pest or weed control at 500 g/ha given Cc1coc(-c2cc[n+](CCCS(=O)(=O)[O-])nc2)n1 as the entry.
A: 80

Q: # return recorded pest or weed control at 500 g/ha for input Cc1csc(-c2cc[n+](CCS(=O)(=O)[O-])nc2)n1
A: 60

Q: Fill in pest or weed control at 500 g/ha for record Cn1nncc1-c1cc[n+](CCC(=O)O)nc1
A: 90

Q: Consider the molecule O=C(O)CC[n+]1ccc(-c2ccsn2)cn1 and give its recorded pest or weed control at 500 g/ha.
A: 40

Q: Name the recorded pest or weed control at 500 g/ha of the molecule listed here: Cn1cnc(-c2cc[n+](CCCS(=O)(=O)[O-])nc2)n1
A: 90

Q: Name the recorded pest or weed control at 500 g/ha of the item CCOC(=O)CC[n+]1ccc(-c2cocn2)cn1 in your answer.
A: 20

Q: Please give measured pest or weed control at 500 g/ha of the following entry: O=C(O)CC[n+]1ccc(-c2ccoc2)cn1
A: 10

Q: // fetch pest or weed control at 500 g/ha given entry O=S(=O)([O-])CCC[n+]1ccc(-c2nccs2)cn1
A: 60
